Experiment: drug combination growth inhibition, ovarian cancer – cell-based, oncology-focused library, rucaparib conditional, profiling panel (AID 1508598)
Settings: patient-derived ovarian cancer cells, CellTiter-Glo viability, 144 h; at 0.0781 µM; OCI-C5x cells; with rucaparib 10 µM; 100% = cells with rucaparib alone
Active and inactive are the calls of the source.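 The calls were made as follows: active = normalized viability below 100% at a tested concentration; inactive = the rest.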
Select the matching outcome among active, inactive

stdin: Status in this test for CC[C@]1(O)C[C@@H]2CN(CCc3c([nH]c4ccccc34)[C@@](C(=O)OC)(c3cc4c(cc3OC)N(C=O)[C@H]3[C@@](O)(C(=O)OC)[C@H](OC(C)=O)[C@]5(CC)C=CCN6CC[C@@]43[C@@H]65)C2)C1 ?
stdout: active

stdin: Cool, now CC(=O)O[C@H]1C(=O)[C@@]2(C)C([C@H](OC(=O)c3ccccc3)[C@]3(O)C[C@H](OC(=O)[C@H](O)[C@@H](NC(=O)c4ccccc4)c4ccccc4)C(C)=C1C3(C)C)[C@]1(OC(C)=O)CO[C@@H]1C[C@H]2O (stereo not given in full)
stdout: active

stdin: Cool, now CC1=C(/C=C/C(C)=C\C=C\C(C)=C/C(=O)O)C(C)(C)CCC1
stdout: inactive

stdin: Cool, now CO[C@H]1C[C@@H]2CC[C@@H](C)[C@@](O)(O2)C(=O)C(=O)N2CCCC[C@H]2C(=O)O[C@H]([C@H](C)C[C@@H]2CC[C@@H](O)[C@H](OC)C2)CC(=O)[C@H](C)/C=C(\C)[C@@H](O)[C@H](OC)C(=O)[C@H](C)C[C@H](C)/C=C/C=C/C=C/1C
stdout: inactive

stdin: Cool, now CC(C)(C)C(=O)Nc1ccc2c(c1)C(=O)C(=O)c1ccccc1-2
stdout: inactive

stdin: Cool, now CC(C)NCCCn1c(Sc2cc3c(cc2I)OCO3)nc2c(N)ncnc21
stdout: inactive

stdin: Cool, now Cc1cc(C)c(S(=O)(=O)n2cc(C)cc2C)c(C)c1
stdout: inactive

stdin: Cool, now C[C@]12CC[C@H]3c4ccc(O)cc4CC[C@H]3[C@@H]1CCC2=O
stdout: inactive

stdin: Cool, now O=c1[nH]c(=O)n([C@@H]2C[C@H](O)[C@@H](CO)O2)cc1F
stdout: inactive

stdin: Cool, now COc1cccc2c1C(=O)c1c(O)c3c(c(O)c1C2=O)C[C@@](O)(C(=O)CO)C[C@H]3O[C@H]1C[C@H](N)[C@H](O)[C@H](C)O1
stdout: inactive

---

Test: RCMB18 cell growth, single agent and combined, cisplatin and BGB IC40 combos (AID 1671462);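 also: cells exposed to compound for four days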
Details: RCMB18 medulloblastoma cells, single agent, at 5 µM, stronger effect = higher value
Would you kindly list inhibition for each of these molecules?
Respond with a number, then the unit of measure.

stdin: # input molecule: O=C1N=c2ccccc2=C1c1c(O)[nH]c2ccccc12 ; wanted: its inhibition
stdout: 98.9%

stdin: Cool, now CCC(C)C(=O)OC1CC(C)C=C2C=CC(C)C(CCC3CC(O)CC(=O)O3)C21 (stereo not given)
stdout: 8.59%

stdin: Cool, now C=CC1=C(C)C2=CC3=NC(=C(CC(=O)O)C4=NC(=C(C)C4=C(O)O)C=c4[nH]c(c(C)c4CC)=CC1=N2)C(CCC(=O)O)C3C (stereo not given)
stdout: -26.5%

stdin: Cool, now Nc1ncn(C2OC(CO)C(O)C2O)c(=O)n1 (stereo not given)
stdout: 41.5%

stdin: Cool, now C#CCC(CCCCCC)C(=O)O (stereo not given)
stdout: -15.4%

---

Experiment: MELAS cybrid and Rieske KO viability enhancers – cell-based, MELAS cybrids, Rieske KO mouse fibroblasts, CellTiter-Glo, primary screen (AID 1508586);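 also: z relative to plate mean and SD of compound and empty wells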
Conditions: Rieske KO mouse fibroblast survival, low glucose, CellTiter-Glo 72 h
Would you kindly list z-score for each of these molecules?

stdin: # input molecule: Cc1ccc(-c2cc(C(=O)N3CCSCC3)cc(S(=O)(=O)N3CCOCC3)c2)s1 ; wanted: its z-score
stdout: -0.0192

stdin: Cool, now Cc1c(CNC(=O)C(=O)c2c(-c3ccccc3)cc3ccccn23)cnn1C
stdout: -0.13

stdin: Cool, now O=c1c(-c2ccccc2Cl)cc2c(n1Cc1ccncc1)CCN(Cc1ccnc3ccccc13)C2
stdout: -0.0903

stdin: Cool, now CC(C)OCCNC1CCc2c(c(C(=O)N(C)Cc3ccccc3)nn2C)C1 (stereo not given)
stdout: -0.804

stdin: Cool, now CC1(C)O[C@@H]2C[C@H]3[C@@H]4CCC5=CC(=O)C=C[C@]5(C)[C@@H]4C(O)C[C@]3(C)[C@@]2(C(=O)CO)O1 (stereo not given in full)
stdout: -0.393

---

Would you kindly list inhibition for each of these molecules?
Test: growth inhibition, single agent and combos, cell-based, chromothripsis tumors, cisplatin or BGB combos (AID 1671450);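 also: cells exposed to compound for four days; 0% = vehicle DMSO and 100% = cell killing by high DMSO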
Details: HDN33 neuroblastoma cells, BGB combo, at 5 µM, stronger effect = higher value
Numbers only; they are read as %.

stdin: # input molecule: CC1CN(c2c(F)c(N)c3c(=O)c(C(=O)O)cn(C4CC4)c3c2F)CC(C)N1 (configuration not stated) ; wanted: its inhibition
stdout: 12

stdin: Cool, now O=C1N=c2ccccc2=C1c1c(O)[nH]c2ccccc12
stdout: 61

stdin: Cool, now C=C(NC(=O)C(=C)NC(=O)c1csc(C2=NC3c4csc(n4)C4NC(=O)c5csc(n5)C(C(C)(O)C(C)O)NC(=O)C5CSC(=N5)/C(=C/C)NC(=O)C(C(C)O)NC(=O)c5csc(n5)C3(CC2)NC(=O)C(C)NC(=O)C(=C)NC(=O)C(C)NC(=O)C(C(C)CC)NC2C=Cc3c(C(C)O)cc(nc3C2O)C(=O)OC4C)n1)C(N)=O (configuration not stated)
stdout: 99.7

stdin: Cool, now CC(Oc1cc(-c2cnn(C3CCNCC3)c2)cnc1N)c1c(Cl)ccc(F)c1Cl (configuration not stated)
stdout: 54.9

stdin: Cool, now CC(C)(C#N)c1ccc(N2C(=O)OCc3cnc4ccc(-c5cnc6ccccc6c5)cc4c32)cc1
stdout: 20.7

stdin: Cool, now CC(C)OC(=O)[C@H](C)NP(=O)(OC[C@H]1O[C@@H](n2ccc(=O)[nH]c2=O)C(C)(F)[C@@H]1O)Oc1ccccc1 (some centres not stated)
stdout: -13.9

stdin: Cool, now NC(=O)c1ncn(C2OC(CO)C(O)C2O)c1O (configuration not stated)
stdout: 5.04

---

Experiment: viability loss with induced miR-34 in A549 – imaging, A549 dox-inducible miR-34, nuclei and caspase counts, primary screen (AID 1347080)
Settings: A549 miR-34 inducible, Hoechst nuclei count, 48 h; measured here: relative caspase fold change +Dox/-Dox
Would you kindly list fold change for each of these compounds?

stdin: # input compound: CCC(C)[C@H]1O[C@]2(CCC1C)CC1C[C@@H](CC=C(C)C(O[C@H]3CC(OC)C(O[C@H]4CC(OC)C(O)C(C)O4)C(C)O3)C(C)C=CC=C3CO[C@@H]4C(O)C(C)=C[C@H](C(=O)O1)[C@]34O)O2 (some centres undefined) ; wanted: its fold change
stdout: 0.443

stdin: Cool, now C=C1C(=O)OC2C1CCC(C)=CCC[C@@]1(C)OC21 (some centres undefined)
stdout: 0.646

stdin: Cool, now OCC1OC(Oc2ccc(O)cc2)C(O)C(O)C1O (centres undefined)
stdout: 1.01

stdin: Cool, now CN(C)Cc1ccc(S(=O)(=O)n2ccc(C=CC(=O)NO)c2)cc1
stdout: 0.443

---

Test: RCMB18 cell growth, single agent and combined, cisplatin and BGB IC40 combos (AID 1671462);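 also: cells exposed to compound for four days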
Conditions: RCMB18 medulloblastoma cells, measured here: combination with cisplatin, at 0.5 µM, stronger effect = higher value
Would you kindly list inhibition for each of these compounds?
Numbers only; they are read as %.

stdin: # input compound: Cc1cn(C2CC(O)C(COP(=O)(O)OP(=O)(O)OP(=O)(O)O)O2)c(=O)[nH]c1=O (configuration not stated) ; wanted: its inhibition
stdout: -28.7

stdin: Cool, now CC1CNC(=O)NC1=O (configuration not stated)
stdout: -13.2

stdin: Cool, now CC(C)(C#N)c1ccc(N2C(=O)OCc3cnc4ccc(-c5cnc6ccccc6c5)cc4c32)cc1
stdout: 7.95

stdin: Cool, now CN(C)C(=S)NN=C(c1ccccn1)c1ccccn1
stdout: 86

stdin: Cool, now NC(=O)c1cccc2[nH]c(-c3ccc(C4CCCN4)cc3F)nc12 (configuration not stated)
stdout: -29.9

stdin: Cool, now NC(=O)c1cccc2cn(-c3ccc(C4CCCNC4)cc3)nc12 (configuration not stated)
stdout: -10.1

stdin: Cool, now C=CC1=C(C)C2=CC3=NC(=C(CC(=O)O)C4=NC(=C(C)C4=C(O)O)C=c4[nH]c(c(C)c4CC)=CC1=N2)C(CCC(=O)O)C3C (configuration not stated)
stdout: -5.59

---

Would you kindly list cell count for each of these compounds?
Experiment: viability loss with induced miR-34 in A549 – imaging, A549 dox-inducible miR-34, nuclei and caspase counts, primary screen (AID 1347080)
Details: A549 miR-34 inducible, Hoechst nuclei count, 48 h; measured here: total cells without miR-34 induction
Respond numerically, and do not add a unit to the figure.

stdin: # input compound: CC(C)(C)c1ccc(-c2nc3ccccc3[nH]2)cc1 ; wanted: its cell count
stdout: 8300

stdin: Cool, now NC1=NC2C(N=C(Br)N2C2O[C@H]3COP(=O)(O)O[C@@H]3[C@@H]2O)C(=O)N1 (stereo not given in full)
stdout: 6620

stdin: Cool, now Nc1ccn([C@@H]2O[C@H](CO)[C@@H](O)[C@@H]2O)c(=O)n1
stdout: 1890

stdin: Cool, now Cc1nc2n(c(=O)c1CCN1CCC(c3noc4cc(F)ccc34)CC1)CCCC2O (stereo not given)
stdout: 9570

stdin: Cool, now CC(=O)ON=C1C(=O)N(Cc2cc(Cl)ccc2Cl)c2ccc(Cl)cc21
stdout: 8370

stdin: Cool, now CCCCC/C=C\C/C=C\C/C=C\C=C\[C@@H](O)CCCC(=O)O
stdout: 5960

stdin: Cool, now CC1(C)O[C@@H]2C[C@H]3[C@@H]4CCC5=CC(=O)C=C[C@]5(C)[C@@H]4C(O)C[C@]3(C)[C@@]2(C(=O)CO)O1 (stereo not given in full)
stdout: 5970

stdin: Cool, now c1cnc2c(c1)ccc1cccnc12
stdout: 2200

stdin: Cool, now CCN(c1nc(N)c(C(=O)N=C(N)N)nc1Cl)C(C)C
stdout: 4360

stdin: Cool, now Nc1nc2cc(C(=O)N3CCN(C(=O)c4ccco4)CC3)ccc2s1
stdout: 10100

stdin: Cool, now Cc1ccc([N+](=O)[O-])cc1S(=O)(=O)N(C)N=Cc1cnc2ccc(Br)cn12
stdout: 896

stdin: Cool, now O=C(O)C1=CC(O)C(O)C(O)C1 (stereo not given)
stdout: 9960

stdin: Cool, now CC(=O)O[C@]12COC1CC(O)[C@]1(C)C(=O)C(O)C3=C(C)C(OC(=O)C(O)C(NC(=O)OC(C)(C)C)c4ccccc4)C[C@](O)(C(OC(=O)c4ccccc4)C21)C3(C)C (stereo not given in full)
stdout: 2220

stdin: Cool, now C[N+](C)(C)[C@@H](Cc1c[nH]c(=S)[nH]1)C(=O)[O-]
stdout: 11300

stdin: Cool, now CCCCCC(=O)/C=C/C=C\CCCCCCCC(=O)O
stdout: 5650

stdin: Cool, now O=C(O)CCC(=O)Nc1ccc(Br)cn1
stdout: 10300

stdin: Cool, now O=C(C=Cc1cccc(S(=O)(=O)Nc2ccccc2)c1)NO
stdout: 1160

stdin: Cool, now O=[N+]([O-])c1ccc(CSc2ncnc3c2ncn3[C@@H]2O[C@H](CO)[C@H](O)C2O)cc1 (stereo not given in full)
stdout: 9340

stdin: Cool, now NC(Cc1cc(I)c(Oc2cc(I)c(O)c(I)c2)c(I)c1)C(=O)O (stereo not given)
stdout: 9130

stdin: Cool, now C[C@@H]1COc2c(N3CCN(C)CC3)c(F)cc3c(=O)c(C(=O)O)cn1c23
stdout: 9190

stdin: Cool, now COc1cc(C=CC(=O)C=C(O)C=Cc2ccc(O)c(OC)c2)ccc1O
stdout: 9000

stdin: Cool, now COc1cc(C(O)C(=O)O)ccc1O (stereo not given)
stdout: 10700

stdin: Cool, now Cc1cc(N2CCOCC2)cc2[nH]c(-c3c(NCC(O)c4cccc(Cl)c4)cc[nH]c3=O)nc12 (stereo not given)
stdout: 858

stdin: Cool, now Cc1cnc(NC(=O)Nc2cc(Br)c(C)cc2OCC2CNCCO2)cn1 (stereo not given)
stdout: 1730

stdin: Cool, now CC(=O)OCC(=O)[C@@]1(O)CC[C@H]2[C@@H]3CCC4=CC(=O)CC[C@]4(C)C3(F)C(=O)C[C@@]21C (stereo not given in full)
stdout: 6960

stdin: Cool, now C=C[C@@]1(C)CC(OC(=O)CSC2C[C@H]3CC[C@@H](C2)N3C)[C@]2(C)C(C)CC[C@]3(CCC(=O)[C@H]32)C(C)C1O (stereo not given in full)
stdout: 7910

stdin: Cool, now O=C(O)c1ccc(-c2ccccc2[N+](=O)[O-])o1
stdout: 9710

stdin: Cool, now CCOC1O[C@H]([C@@H](COCc2ccccc2)OCc2ccccc2)[C@H](OCc2ccccc2)[C@H]1O (stereo not given in full)
stdout: 8970

stdin: Cool, now CSc1nc(N)c2ncn([C@@H]3O[C@H](COP(=O)(O)OP(=O)(O)OP(=O)(O)O)[C@H](O)C3O)c2n1 (stereo not given in full)
stdout: 9880

stdin: Cool, now CC(=O)OC1CC2CCC3C(CCC4(C)C3CC([N+]3(C)CCCCC3)C4OC(C)=O)C2(C)CC1[N+]1(C)CCCCC1 (stereo not given)
stdout: 10000

stdin: Cool, now CS(=O)(=O)c1ccc(C(=N)N)cc1
stdout: 9770

stdin: Cool, now Cc1nn(C)cc1-c1ccnc(NCc2nc(Cc3ccccc3)no2)n1
stdout: 9840

stdin: Cool, now C=C1C(=O)[C@@]23C(O)[C@H]1CCC2[C@]12CO[C@]3(O)C(O)[C@@H]1C(C)(C)CCC2O (stereo not given in full)
stdout: 8940

stdin: Cool, now N=C(N)c1ccccc1
stdout: 10500

stdin: Cool, now CC(=O)N[C@@H](CC(C)C)C(=O)N[C@@H](CC(C)C)C(=O)N[C@H](C=O)CCCN=C(N)N
stdout: 6110

stdin: Cool, now C#CCC(Cc1cnc2nc(N)nc(N)c2n1)c1ccc(C(=O)NC(CCC(=O)O)C(=O)O)cc1 (stereo not given)
stdout: 2130

stdin: Cool, now N=C(N)SCCc1cccc(CCSC(=N)N)c1
stdout: 6310

stdin: Cool, now CCCCC[C@H](O)C/C=C1/C(=O)C=C[C@@H]1C/C=C\CCCC(=O)O
stdout: 5980

stdin: Cool, now O=C(c1cn(Cc2cncn2Cc2ccc(Br)cc2)cc1-c1cccc2ccccc12)N1CCOCC1
stdout: 3270

stdin: Cool, now N[C@@H]1CCCC[C@H]1N.O=C(O)C(=O)O.[Pt]
stdout: 4710
